Hey, just so you know, these numbers are from patent US20230014907A1.

assay target: G1 APOL1 (Homo sapiens, UniProt O14791, I384M/S342G)
Construct: expressed in transfected cells
method summary: Acute APOL1 Thallium Assay with Inducible Stable Clones of HEK 293 Cells
Format: cell-based
test settings: HEK 293 inducible stable clones, G1 APOL1; read-out: Thallium Assay (IC50)
reported endpoint: IC50

The following molecules have reported results that may help.
>>> recorded_result("C[C@@H](CO)NC(=O)NCCc1c(-c2ccc(F)cc2)[nH]c2c(F)cc(F)cc12")
"< 250 nM"
>>> recorded_result("O=C(CCc1c(-c2ccc(F)cc2)[nH]c2c(F)cc(F)cc12)N[C@@H](CO)C(F)F")
"< 250 nM"

Attention now shifts to the item below.
# input Report IC50, nothing else, for this molecule: O=C(CCc1c(-c2ccc(F)cc2)[nH]c2c(F)cc(F)cc12)N1CC[C@@H]1CO
# output > 1000 nM

---

Item-by-item account of pIC50
assay target: G1 APOL1 (Homo sapiens, UniProt O14791, I384M/S342G)
Construct: expressed in transfected cells
Sequence (O14791 28-398 S342G/I384M): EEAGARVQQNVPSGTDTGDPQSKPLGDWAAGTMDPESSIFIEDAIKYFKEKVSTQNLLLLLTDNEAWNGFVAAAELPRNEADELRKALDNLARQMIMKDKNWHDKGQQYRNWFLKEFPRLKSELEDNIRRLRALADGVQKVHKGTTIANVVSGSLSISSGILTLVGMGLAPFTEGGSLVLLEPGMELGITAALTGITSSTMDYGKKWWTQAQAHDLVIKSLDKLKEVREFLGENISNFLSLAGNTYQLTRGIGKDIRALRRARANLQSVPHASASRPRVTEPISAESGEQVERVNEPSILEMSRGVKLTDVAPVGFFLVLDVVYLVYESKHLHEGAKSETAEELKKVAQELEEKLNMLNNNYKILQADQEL
method summary: Acute APOL1 Thallium Assay with Inducible Stable Clones of HEK 293 Cells
Assay type: cell-based
test settings: HEK 293 inducible stable clones, G1 APOL1; read-out: Thallium Assay (IC50)
pIC50: −log10 of the molar value.

The following molecules have reported results that may help.
>>> recorded_result("O=C(CCc1c(-c2ccc(F)cc2)[nH]c2c(F)cc(Cl)cc12)NC1(CO)CCC1")
"6.00 to 6.60"
>>> recorded_result("CC(C)C[C@@H](CO)NC(=O)CCc1c(-c2ccc(F)cc2)[nH]c2c(F)cc(F)cc12")
"< 6.00"
>>> recorded_result("O=C(CCc1c(-c2ccc(F)cc2)[nH]c2c(F)cc(F)cc12)N[C@H]1CC[C@@H](O)C1")
"< 6.00"
>>> recorded_result("O=C(CCc1c(-c2ccc(F)cc2)[nH]c2c(F)cc(F)cc12)NC(c1ccco1)C(F)(F)F (centres unmarked)")
"< 6.00"
>>> recorded_result("O=C1CC(C(=O)NCCc2c(-c3ccc(F)cc3)[nH]c3c(F)cc(F)cc23)CCN1 (centres unmarked)")
"< 6.00"
>>> recorded_result("O=C(Nc1cc(=O)[nH][nH]1)OCCc1c(-c2ccc(F)cc2)[nH]c2c(F)cc(F)cc12")
"< 6.00"
>>> recorded_result("CCC(C)(O)CNC(=O)CCc1c(-c2ccc(F)cc2)[nH]c2ccc(F)cc12 (centres unmarked)")
"< 6.00"

Attention now shifts to the item below.
# input Report pIC50, nothing else, for this molecule: O=C(CCc1c(-c2ccc(F)cc2)[nH]c2c(F)cc(Cl)cc12)NCCO
# output 6.00 to 6.60

---

assay target: G1 APOL1 (Homo sapiens, UniProt O14791, I384M/S342G)
Construct: expressed in transfected cells
method summary: Acute APOL1 Thallium Assay with Inducible Stable Clones of HEK 293 Cells
Type: cell-based
test settings: HEK 293 inducible stable clones, G1 APOL1; read-out: Thallium Assay (IC50)
pIC50: −log10 of the molar value.
reported endpoint: pIC50

The following compounds have reported results that may help.
>>> recorded_result("O=C(CCc1c(-c2ccc(F)cc2)[nH]c2ccc(F)cc12)N1CCC(F)C1 (centres unmarked)")
"< 6.00"
>>> recorded_result("C[C@H](CO)NC(=O)CCc1c(-c2ccc(F)cc2)[nH]c2c(F)cc(Br)cc12")
"> 6.60"
>>> recorded_result("O=C(NCCc1c(-c2ccc(F)cc2)[nH]c2c(F)cc(F)cc12)c1cccnn1")
"< 6.00"
>>> recorded_result("O=C(CO)NCCc1c(-c2ccc(F)cc2)[nH]c2c(F)cc(F)cc12")
"< 6.00"
>>> recorded_result("O=C(NCCc1c(-c2ccc(F)cc2)[nH]c2c(F)cc(F)cc12)c1ncccn1")
"< 6.00"
>>> recorded_result("O=C(/C=C/c1c(-c2ccc(F)cc2)[nH]c2c(F)cc(F)cc12)N[C@@H]1C(=O)NC[C@H]1O")
"> 6.60"
>>> recorded_result("O=C(NC1CCOC1)OCCc1c(-c2ccc(F)cc2)[nH]c2c(F)cc(F)cc12 (centres unmarked)")
"6.00 to 6.60"

Attention now shifts to the item below.
# input Report pIC50, nothing else, for this compound: O=C(NC1(CO)CCC1)OCCc1c(-c2ccc(F)cc2)[nH]c2c(F)cc(F)cc12
# output > 6.60

---

assay target: APOL1 G1 Protein (Homo sapiens, UniProt O14791, I384M/S342G)
method summary: Trypanosoma brucei brucei Lysis Assay Using APOL1 Recombinant Protein (AlamarBlue viability)
test settings: read-out: Trypanosomal Assay (IC50)
reported endpoint: IC50

>>> recorded_result("OCCc1c(-c2ccc(F)cc2)[nH]c2c(F)cc(F)cc12")
"< 250 nM"
>>> recorded_result("CC(=O)NCCCc1c(-c2ccc(F)cc2)[nH]c2c(Cl)cccc12")
"250 to 1000 nM"
>>> recorded_result("O=C(CCc1c(-c2ccc(F)cc2)[nH]c2c(F)ccc(F)c12)N[C@@H](CO)C(F)(F)F")
"250 to 1000 nM"
>>> recorded_result("CC(C#N)(CO)NC(=O)CCc1c(-c2ccc(F)cc2)[nH]c2ccc(F)cc12 (racemic)")
"> 1000 nM"
>>> recorded_result("CNC(=O)CCc1c(-c2ccc(F)cc2)[nH]c2ccc(F)cc12")
"> 1000 nM"

# input Report IC50, nothing else, for this compound: O=C(CCc1c(-c2ccc(F)cc2)[nH]c2ccc(F)cc12)Nc1cn[nH]c1
# output > 1000 nM

# input Report IC50, nothing else, for this compound: O=C(CCc1c(-c2ccc(F)cc2)[nH]c2ccccc12)NC1CC1
# output > 1000 nM

# input Report IC50, nothing else, for this compound: O=C(CCc1c(-c2ccc(F)cc2)[nH]c2c(F)ccc(F)c12)N[C@H]1CCOC1=O
# output > 1000 nM

---

assay target: G1 APOL1 (Homo sapiens, UniProt O14791, I384M/S342G)
Construct: expressed in transfected cells
method summary: Acute APOL1 Thallium Assay with Inducible Stable Clones of HEK 293 Cells
Type: cell-based
test settings: HEK 293 inducible stable clones, G1 APOL1; read-out: Thallium Assay (IC50)
Item-by-item account of IC50

>>> recorded_result("CN(C)S(=O)(=O)NCCc1c(-c2ccc(F)cc2)[nH]c2c(F)cc(F)cc12")
"> 1000 nM"
>>> recorded_result("CS(=O)(=O)NC(=O)CCc1c(-c2ccc(F)cc2)[nH]c2c(F)cc(F)cc12")
"> 1000 nM"
>>> recorded_result("O=C(NCCCc1c(-c2ccc(F)cc2)[nH]c2ccc(F)cc12)C(F)F")
"250 to 1000 nM"
>>> recorded_result("CCC(O)CNC(=O)OCCc1c(-c2ccc(F)cc2)[nH]c2c(F)cc(F)cc12 (centres unmarked)")
"250 to 1000 nM"
>>> recorded_result("O=C(CCc1c(-c2ccc(F)cc2)[nH]c2ccc(F)cc12)NC1COC1")
"> 1000 nM"

# input Report IC50, nothing else, for this compound: O=C(CCc1c(-c2ccc(F)cc2)[nH]c2c(F)cc(Br)cc12)N[C@@H](CO)C(F)(F)F
# output 250 to 1000 nM

# input Report IC50, nothing else, for this compound: CC(CC(N)=O)NC(=O)NCCc1c(-c2ccc(F)cc2)[nH]c2c(F)cc(F)cc12 (racemic)
# output 250 to 1000 nM

# input Report IC50, nothing else, for this compound: O=C(CCc1c(-c2ccc(F)cc2)[nH]c2c(F)cc(F)cc12)Nc1nc(C(F)(F)F)co1
# output > 1000 nM

# input Report IC50, nothing else, for this compound: N#CC(CO)NC(=O)CCc1c(-c2ccc(F)cc2)[nH]c2c(F)cc(Cl)cc12 (centres unmarked)
# output 250 to 1000 nM

# input Report IC50, nothing else, for this compound: NC(=O)CCc1c(-c2ccc(F)cc2)[nH]c2ccc(F)cc12
# output > 1000 nM

# input Report IC50, nothing else, for this compound: CCOCCNC(=O)OCCc1c(-c2ccc(F)cc2)[nH]c2c(F)cc(F)cc12
# output 250 to 1000 nM

# input Report IC50, nothing else, for this compound: O=C(NCCc1c(-c2ccc(F)cc2)[nH]c2c(F)cc(F)cc12)C1CC1(F)F (centres unmarked)
# output 250 to 1000 nM

# input Report IC50, nothing else, for this compound: Cn1ccnc1NC(=O)CCc1c(-c2ccc(F)cc2)[nH]c2c(F)cc(F)cc12
# output > 1000 nM

# input Report IC50, nothing else, for this compound: O=C(NCCc1c(-c2ccc(F)cc2)[nH]c2c(F)cc(F)cc12)NC(CO)CF (centres unmarked)
# output 250 to 1000 nM

# input Report IC50, nothing else, for this compound: CC(C#N)(CO)NC(=O)OCCc1c(-c2ccc(F)cc2)[nH]c2c(F)cc(F)cc12 (racemic)
# output 250 to 1000 nM

# input Report IC50, nothing else, for this compound: C[C@H](CO)NC(=O)CCCc1c(-c2ccc(F)cc2)[nH]c2c(F)cc(F)cc12
# output 250 to 1000 nM

# input Report IC50, nothing else, for this compound: O=C(NCCc1c(-c2ccc(F)cc2)[nH]c2c(F)cc(F)cc12)C1(O)CC1
# output 250 to 1000 nM

# input Report IC50, nothing else, for this compound: O=C(COc1cccnc1)NCCc1c(-c2ccc(F)cc2)[nH]c2c(F)cc(F)cc12
# output > 1000 nM

# input Report IC50, nothing else, for this compound: O=C(NCCc1c(-c2ccc(F)cc2)[nH]c2c(F)cc(F)cc12)OCC1(C(=O)O)CC1
# output > 1000 nM

# input Report IC50, nothing else, for this compound: N[C@H]1C[C@@H](NC(=O)CCc2c(-c3ccc(F)cc3)[nH]c3ccc(F)cc23)C1
# output > 1000 nM

# input Report IC50, nothing else, for this compound: O=C(NCCc1c(-c2ccc(F)cc2)[nH]c2c(F)cc(F)cc12)[C@H]1CCOC1
# output > 1000 nM

# input Report IC50, nothing else, for this compound: O=C(CCc1c(-c2ccc(F)cc2)[nH]c2ccc(F)cc12)N[C@@H](CO)C(F)F
# output 250 to 1000 nM

# input Report IC50, nothing else, for this compound: CC(NC(=O)OCCc1c(-c2ccc(F)cc2)[nH]c2c(F)cc(F)cc12)C(N)=O (racemic)
# output 250 to 1000 nM

# input Report IC50, nothing else, for this compound: CC1(CO)CCN1C(=O)CCc1c(-c2ccc(F)cc2)[nH]c2c(F)cc(F)cc12 (centres unmarked)
# output 250 to 1000 nM

# input Report IC50, nothing else, for this compound: O=C(CCc1c(-c2ccc(F)cc2)[nH]c2ccc(F)cc12)NC1(CO)COC1
# output 250 to 1000 nM

# input Report IC50, nothing else, for this compound: O=C(CCc1c(-c2ccc(F)cc2)[nH]c2c(F)cc(F)cc12)NCc1cnn(CC(F)(F)F)c1
# output > 1000 nM

# input Report IC50, nothing else, for this compound: O=C(CCc1c(-c2ccc(F)cc2)[nH]c2ccc(F)cc12)NC1CC1(F)F (centres unmarked)
# output 250 to 1000 nM

# input Report IC50, nothing else, for this compound: CC(C)(C)OC(=O)N[C@H]1C[C@@H](NC(=O)CCc2c(-c3ccc(F)cc3)[nH]c3ccc(F)cc23)C1
# output > 1000 nM

# input Report IC50, nothing else, for this compound: CC(=O)NCC(F)(F)Cc1c(-c2ccc(F)cc2)[nH]c2c(F)cc(F)cc12
# output 250 to 1000 nM
